# Measurement target: human factor D (Homo sapiens (Human))
# Sequence (P00746 26-253): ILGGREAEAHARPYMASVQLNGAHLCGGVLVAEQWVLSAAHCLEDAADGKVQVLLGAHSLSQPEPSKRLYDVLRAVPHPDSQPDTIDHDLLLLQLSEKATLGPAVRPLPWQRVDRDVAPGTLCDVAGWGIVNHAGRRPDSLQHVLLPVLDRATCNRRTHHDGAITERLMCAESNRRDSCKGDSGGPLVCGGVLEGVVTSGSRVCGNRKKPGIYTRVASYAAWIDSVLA
# Measurement protocol: biochemical
# Assay type: biochemical
# Experimental setup: Factor D inhibition data using Method 1; recombinant human factor D 10 nM, substrate Z-Lys-thiobenzyl, fluorescence; read-out: IC50
pIC50: −log10 of the molar value.
Lab note: compare pIC50 against 7. Equal or greater, write yes. Smaller, write no.

[[record]]
molecule = "CC(=O)c1nn(CC(=O)N2[C@@H]3C[C@@H]3C[C@H]2C(=O)NC[C@H]2CC2(Cl)Cl)c2ccc(OCc3nccs3)cc12 [Example 106]"
measurement_target = "human factor D (Homo sapiens (Human))"
assigned_class = "yes"

[[record]]
molecule = "C[C@@H](NC(=O)[C@@H]1C[C@@H](F)CN1C(=O)Cn1nc(C(N)=O)c2ccccc21)[C@H]1CC1(Cl)Cl [Example 58]"
measurement_target = "human factor D (Homo sapiens (Human))"
assigned_class = "yes"

[[record]]
molecule = "Cc1nccc2c(C(N)=O)nn(CC(=O)N3[C@@H]4C[C@@H]4C[C@H]3C(=O)N[C@H](C)[C@H]3CC3(Cl)Cl)c12 [Example 44]"
measurement_target = "human factor D (Homo sapiens (Human))"
assigned_class = "yes"

[[record]]
molecule = "CC(=O)c1nn(CC(=O)N2[C@@H]3C[C@@H]3C[C@H]2C(=O)NC[C@H]2C(C)(C)C2(Cl)Cl)c2ccc(OCc3ncccn3)cc12 [Example 104]"
measurement_target = "human factor D (Homo sapiens (Human))"
assigned_class = "yes"


# bool: pIC50 of CC1(C)[C@H](CNC(=O)[C@@H]2C[C@H]3C[C@H]3N2C(=O)Cn2nc(C(N)=O)c3ccccc32)C1(Cl)Cl [Example 107] >= 7
yes

# bool: pIC50 of CC1(C)[C@@H](CNC(=O)[C@@H]2C[C@H]3C[C@H]3N2C(=O)Cn2nc(C(N)=O)c3ccncc32)C1(Cl)Cl [Example 101] >= 7
no

# bool: pIC50 of NC(=O)n1cc(NC(=O)N2[C@@H]3C[C@@H]3C[C@H]2C(=O)NCC2CCCCC2)c2ccccc21 [Example 25] >= 7
no
